System: kochia
Test: Test A preemergence
Type: in vivo, Bassia scoparia
Conditions: 500 g ai/ha, 0 to 100 scale (0 no effect, 100 complete control), 10 days

>  <Compound>
O=C(c1cccc(-n2cncn2)c1)N1CC(C(F)(F)F)Oc2c(Cl)cccc21 (centres unmarked)

>  <Target System>
kochia

>  <Plant response rating, Kochia>
90

$$$$
>  <Compound>
Cc1ccc(-n2cnc(C3CC3)n2)cc1C(=O)N1C[C@H](C)Oc2c(Cl)cccc21

>  <Target System>
kochia

>  <Plant response rating, Kochia>
100

$$$$
>  <Compound>
Cc1cccc2c1O[C@@H](C)CN2C(=O)c1cc(-n2cncn2)ccc1F

>  <Target System>
kochia

>  <Plant response rating, Kochia>
10

$$$$
>  <Compound>
CCC1CN(C(=O)c2cncc(-n3cncn3)c2)c2cccc(Cl)c2O1 (racemic)

>  <Target System>
kochia

>  <Plant response rating, Kochia>
0

$$$$
>  <Compound>
Cc1cccc2c1O[C@@H](C)CN2C(=O)c1cccc(-n2cnc(C(C)(C)C)n2)c1

>  <Target System>
kochia

>  <Plant response rating, Kochia>
100

$$$$
>  <Compound>
Cc1ccc(C(=O)N2CC(C)Oc3c(Cl)cccc32)cc1-n1cncn1 (centres unmarked)

>  <Target System>
kochia

>  <Plant response rating, Kochia>
30

$$$$
>  <Compound>
CCc1ncn(-c2cccc(C(=O)N3C[C@H](C)Oc4c(Cl)cccc43)c2)n1

>  <Target System>
kochia

>  <Plant response rating, Kochia>
100

$$$$
>  <Compound>
CC1CN(C(=O)c2cc(F)cc(-n3cncn3)c2)c2cccc(Cl)c2O1 (centres unmarked)

>  <Target System>
kochia

>  <Plant response rating, Kochia>
20

$$$$
>  <Compound>
C[C@H]1CN(C(=O)c2cccc(-n3cnc(C(C)(C)C)n3)c2)c2cccc(Cl)c2O1

>  <Target System>
kochia

>  <Plant response rating, Kochia>
100

$$$$
>  <Compound>
Cc1ccc(-n2cncn2)cc1C(=O)N1C[C@H](C)Oc2c(C)cccc21

>  <Target System>
kochia

>  <Plant response rating, Kochia>
30

$$$$
>  <Compound>
Cc1cccc2c1O[C@@H](C)CN2C(=O)c1cccc(-n2cnc(C3CC3)n2)c1

>  <Target System>
kochia

>  <Plant response rating, Kochia>
90

$$$$

---

Test system: barnyardgrass
Test: Test C preemergence
Format: in vivo, Echinochloa crusgalli
Details: Test C, preemergence, 125 g ai/ha; 0 to 100 scale (0 no effect, 100 complete control)
Listing: Barnyardgrass plant response rating of selected compounds

>  <Compound>
Cc1ccc(-n2cnc(C3(C(F)(F)F)CC3)n2)cc1C(=O)N1C[C@H](C)Oc2c(Cl)cccc21

>  <Barnyardgrass plant response rating>
70

$$$$
>  <Compound>
Cc1cccc2c1O[C@@H](C)CN2C(=O)c1cccc(-n2cnc(C(C)(C)O)n2)c1

>  <Barnyardgrass plant response rating>
100

$$$$
>  <Compound>
Cc1cccc2c1OC(C(F)(F)F)CN2C(=O)c1cccc(-n2cnc(C(C)C)n2)c1 (racemic)

>  <Barnyardgrass plant response rating>
50

$$$$
>  <Compound>
COc1cc(C(=O)N2C[C@H](C)Oc3c(Cl)cccc32)cc(-n2cnc(C(C)(C)C)n2)c1

>  <Barnyardgrass plant response rating>
60

$$$$
>  <Compound>
CCc1ccc(-n2cnc(C(C)C)n2)cc1C(=O)N1C[C@H](C)Oc2c(C)cccc21

>  <Barnyardgrass plant response rating>
90

$$$$
>  <Compound>
Cc1ccc(-n2cnc(CC3CC3)n2)cc1C(=O)N1C[C@H](C)Oc2c(Cl)cccc21

>  <Barnyardgrass plant response rating>
40

$$$$
>  <Compound>
Cc1cccc2c1O[C@@H](C)CN2C(=O)c1cccc(-n2cnc(N(C)S(C)(=O)=O)n2)c1

>  <Barnyardgrass plant response rating>
10

$$$$
>  <Compound>
CC(C)c1ncn(-c2cc(C(=O)N3C[C@H](C)Oc4c(Cl)cccc43)cnn2)n1

>  <Barnyardgrass plant response rating>
70

$$$$

---

Test system: ragweed
Experiment: Test C preemergence
Type: in vivo, Ambrosia artemisiifolia
Conditions: Preemergence, 125 g ai/ha; 0 to 100 scale, 0 no effect, 100 complete control
Test Readout: Plant response rating, Ragweed

>  <Molecule>
Cc1ncnn1-c1cc(C(=O)N2CC(C(F)(F)F)Oc3c(Cl)cccc32)ccn1 (racemic)

>  <Target System>
ragweed

>  <Measured>
0

$$$$
>  <Molecule>
Cc1cccc2c1OC(C(F)(F)F)CN2C(=O)c1ccnc(-n2cnc(C(C)(C)C)n2)c1 (stereo not shown)

>  <Target System>
ragweed

>  <Measured>
0

$$$$
>  <Molecule>
CC(C)c1ncn(-c2cc(C(=O)N3CC(C(F)(F)F)Oc4c(Cl)cccc43)ccn2)n1 (single isomer, unassigned) [Compound 331]

>  <Target System>
ragweed

>  <Measured>
0

$$$$
>  <Molecule>
Cc1ccc(-n2cnc(C3(C#N)CC3)n2)cc1C(=O)N1C[C@H](C)Oc2c(Cl)cccc21

>  <Target System>
ragweed

>  <Measured>
0

$$$$
>  <Molecule>
CC(=O)c1ncn(-c2ccc(C)c(C(=O)N3C[C@H](C)Oc4c(Cl)cccc43)c2)n1

>  <Target System>
ragweed

>  <Measured>
80

$$$$
>  <Molecule>
Cc1ncn(-c2cccc(C(=O)N3C[C@H](C)Oc4c(Cl)cccc43)c2)n1

>  <Target System>
ragweed

>  <Measured>
0

$$$$
>  <Molecule>
CCc1ncn(-c2cccc(C(=O)N3CC(C(F)(F)F)Oc4c(Cl)cccc43)c2)n1 (stereo not shown)

>  <Target System>
ragweed

>  <Measured>
0

$$$$
>  <Molecule>
COC[C@H]1CN(C(=O)c2cc(-n3cnc(C(C)(C)C)n3)cc3c2OCCO3)c2cccc(Cl)c2O1

>  <Target System>
ragweed

>  <Measured>
60

$$$$
>  <Molecule>
Cc1ccc(-n2cnc(CC#N)n2)cc1C(=O)N1C[C@H](C)Oc2c(Cl)cccc21

>  <Target System>
ragweed

>  <Measured>
20

$$$$
>  <Molecule>
CNc1ncn(-c2cccc(C(=O)N3C[C@H](C)Oc4c(C)cccc43)c2)n1

>  <Target System>
ragweed

>  <Measured>
30

$$$$
>  <Molecule>
CCOC[C@H]1CN(C(=O)c2cc(-n3cnc(C(C)C)n3)ccc2C)c2cccc(Cl)c2O1

>  <Target System>
ragweed

>  <Measured>
80

$$$$
>  <Molecule>
CSc1ccc(-n2cnc(C(C)C)n2)cc1C(=O)N1C[C@H](C)Oc2c(Cl)cccc21

>  <Target System>
ragweed

>  <Measured>
10

$$$$
>  <Molecule>
CCOC[C@H]1CN(C(=O)c2cc(-n3cnc(CC)n3)ccc2C)c2cccc(Cl)c2O1

>  <Target System>
ragweed

>  <Measured>
50

$$$$

---

Listing: Plant response rating, Blackgrass of selected molecules
System: blackgrass
Test: Test A preemergence
Type: in vivo, Alopecurus myosuroides
Details: 500 g ai/ha, 0 to 100 scale (0 no effect, 100 complete control), 10 days

>  <Record Smiles>
C[C@H]1CN(C(=O)c2cccc(-n3cnc(CC4CCCCC4)n3)c2)c2cccc(Cl)c2O1

>  <Plant response rating, Blackgrass>
0

$$$$
>  <Record Smiles>
CC(C)Oc1ccc(-n2cnc(C(C)C)n2)cc1C(=O)N1C[C@H](C)Oc2c(Cl)cccc21

>  <Plant response rating, Blackgrass>
40

$$$$
>  <Record Smiles>
CCc1ncn(-c2ccc(CC)c(C(=O)N3C[C@H](C)Oc4c(Cl)cccc43)c2)n1

>  <Plant response rating, Blackgrass>
80

$$$$

---

System: pigweed, palmer
Experiment: Test A preemergence
Assay type: in vivo, Amaranthus palmeri
Details: Amaranthus palmeri, pre-emergence, 240 h, 125 g ai/ha, visual injury after 10 days, 0 to 100 scale, 0 is no effect, 100 is complete control, read-out: Plant response rating, Pigweed, Palmer
Listing: pest or weed control at 125 g/ha of selected compounds

>  <Record Smiles>
C[C@H]1CN(C(=O)c2cccc(-n3cnc(C4CCC4)n3)c2)c2cccc(Cl)c2O1

>  <pest or weed control at 125 g/ha (%)>
90

$$$$
>  <Record Smiles>
Cc1ccc(-n2cnc(C(C)(C)C)n2)cc1C(=O)N1C[C@H](C)Oc2c(Cl)cccc21

>  <pest or weed control at 125 g/ha (%)>
100

$$$$
>  <Record Smiles>
C[C@H]1CN(C(=O)c2cccc(-c3cnn(C)n3)c2)c2cccc(Cl)c2O1

>  <pest or weed control at 125 g/ha (%)>
40

$$$$
>  <Record Smiles>
CCc1ncn(-c2ccc(OC)c(C(=O)N3C[C@H](C)Oc4c(Cl)cccc43)c2)n1

>  <pest or weed control at 125 g/ha (%)>
100

$$$$
>  <Record Smiles>
COc1ccc(-n2cncn2)cc1C(=O)N1C[C@H](C)Oc2c(C)cccc21

>  <pest or weed control at 125 g/ha (%)>
40

$$$$
>  <Record Smiles>
COc1ccc(-n2cnc(C(C)C)n2)cc1C(=O)N1C[C@H](C)Oc2c(Cl)cccc21

>  <pest or weed control at 125 g/ha (%)>
100

$$$$
